Protein target, amino acids: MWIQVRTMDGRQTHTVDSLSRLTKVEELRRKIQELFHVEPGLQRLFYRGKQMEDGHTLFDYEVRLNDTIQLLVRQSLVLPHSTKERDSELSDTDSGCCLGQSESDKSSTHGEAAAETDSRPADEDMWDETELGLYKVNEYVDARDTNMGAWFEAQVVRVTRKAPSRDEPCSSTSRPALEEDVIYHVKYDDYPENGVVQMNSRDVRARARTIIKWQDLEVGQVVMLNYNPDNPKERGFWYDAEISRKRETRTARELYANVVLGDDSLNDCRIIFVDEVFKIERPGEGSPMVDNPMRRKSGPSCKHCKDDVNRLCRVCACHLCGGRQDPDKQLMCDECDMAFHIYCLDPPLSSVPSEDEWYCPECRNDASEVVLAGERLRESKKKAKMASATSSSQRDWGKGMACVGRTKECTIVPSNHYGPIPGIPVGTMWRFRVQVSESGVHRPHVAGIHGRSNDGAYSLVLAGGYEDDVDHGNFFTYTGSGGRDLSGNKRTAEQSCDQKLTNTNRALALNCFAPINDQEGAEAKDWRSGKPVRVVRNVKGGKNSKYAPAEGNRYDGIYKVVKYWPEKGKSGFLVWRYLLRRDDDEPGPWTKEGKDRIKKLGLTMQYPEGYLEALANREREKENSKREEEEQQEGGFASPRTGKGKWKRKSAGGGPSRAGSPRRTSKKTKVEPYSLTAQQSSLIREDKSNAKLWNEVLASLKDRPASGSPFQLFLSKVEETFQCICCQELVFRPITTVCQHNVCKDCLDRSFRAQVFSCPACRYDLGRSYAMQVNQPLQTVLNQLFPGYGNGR
observation.type: Kd (µM)
Field format: number, assumed µM, no unit text.

Can you share its Kd? I mean this molecule: Cc1nc(Nc2ncc(C(=O)Nc3cc(NC(=O)c4cccc(C(F)(F)F)c4)ccc3C)s2)cc(N2CCN(CCO)CC2)n1 [UM164]
10.2

Provenance of the data: paper PMC12041315
